Target: UniProt:P00590
Sequence (P00590 whole entry): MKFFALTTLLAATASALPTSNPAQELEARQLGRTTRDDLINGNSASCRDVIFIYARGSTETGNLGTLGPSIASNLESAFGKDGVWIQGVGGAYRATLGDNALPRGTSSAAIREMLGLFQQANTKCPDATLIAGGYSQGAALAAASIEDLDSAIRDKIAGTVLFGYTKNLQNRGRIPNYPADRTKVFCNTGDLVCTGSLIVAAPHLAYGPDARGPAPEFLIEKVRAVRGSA
Test: Inhibition of Fusarium solani pisi cutinase preincubated with enzyme measured after 30 mins by pH-stat technique
Parameter: XI50. Scope: all listed entries.
QUANTITY MEASURED: XI50 (molar excess)

CCCCCCCCCC[C@@H]1CC[P@@](=O)(OC)OC(C)=C1C(=O)OC 3.38
CCCCCCCCCC[C@H]1CC[P@](=O)(OC)OC(C)=C1C(=O)OC 2.52
CCCCCCCCCC[C@H]1CC[P@@](=O)(OC)OC(C)=C1C(=O)OC 97.3
CCCCCCCCCC[C@@H]1CC[P@](=O)(OC)OC(C)=C1C(=O)OC 4.07
